# Assay text: qHTS for Inhibitors of human tyrosyl-DNA phosphodiesterase 1 (TDP1): qHTS in cells in absence of CPT; note: nearly all actives have a fitted effect of over 55% in size
# Experimental parameters: DT40 Tdp1-/- hTDP1 cells, no CPT, ATP luminescence, 48 h; series mostly up to 46.2 µM
In all, about 420,000 compounds went through this assay and about 64,000 (15%) were called active. About 27% were inconclusive and are not listed. Calls come from the whole dose curve; as a rule, active = well fitted inhibition curve with a large enough effect; inconclusive = small, poorly fitted or top-dose-only effect; inactive = flat fitted curve, though single readings scatter. The sample as a whole holds a higher share of actives than the screen did.
Write down the outcome that applies. Available outcomes: active, inactive

Illustrative cases are given below, each with its answer.
{"Molecule": "C=CCN1C(=O)NC(=O)/C(=C/c2ccc(OCC(=O)Nc3ccc(C)cc3)cc2)C1=O", "Discrete label": "inactive"}
{"Molecule": "NCCc1ccc(S(=O)(=O)F)cc1", "Discrete label": "inactive"}
{"Molecule": "COc1ccc(C)cc1N(CC(=O)N1CCC(C)CC1)S(=O)(=O)c1ccc(C)cc1", "Discrete label": "active"}
{"Molecule": "Cc1nc2ccccc2c(=O)n1-c1ccc(Cl)cc1Cl", "Discrete label": "active"}

Which outcome was entered for the molecule "CN(C(=O)CSc1nc2ccc(NC(=O)COc3ccccc3)cc2s1)c1ccccc1" in this test?
active

Give the logged outcome of this assay for the following molecule: CC=C(C)C(=O)OC1CCN2CC=C(COC(=O)C(O)(C(C)OC)C(C)(C)O)C12 (stereo not given)
inactive

Please let me know the test result on file for "COc1ccc(-c2cc(NC=O)c3ncc(-c4cc(OC)c(OC)c(OC)c4)n3c2)c(OC)c1" .
active

Kindly provide the recorded test outcome for the following molecule: "CCOc1ccc(-c2cc(C)[n+](CCN(CC)CC)c(-c3ccc(OCC)cc3)c2)cc1"
active

Which result was noted for this molecule in the test: "O=C(Nc1cccc(F)c1)N1CC[C@@]2(CCCN(C(=O)Oc3ccccc3)C2)C1"
inactive

Test call, this molecule: "O=C(/C=C/c1cccs1)c1cc(Cl)ccc1OC(=O)N1CCOCC1"
active

Which outcome was assigned to "O=C(COc1ccccc1Cl)Nc1ccc2nc(SCC(=O)N3CCCC3)sc2c1" in this test?
active

What did the test return for "Cc1ccc(C)c(NS(=O)(=O)c2ccc(OCC(=O)NCc3cccnc3)cc2)c1" ?
inactive

Each molecule tested received a call. Report the one for CCC1(C)CC(CCNCc2ccc(N(C)C)cc2)(c2ccc(F)cc2)CCO1 (stereo not given) .
active

Per the records of this test, what outcome belongs to c1ccc(CC2CCCCN2)cc1 (stereo not given) ?
inactive

====

# Assay text: qHTS for Inhibitors of human tyrosyl-DNA phosphodiesterase 1 (TDP1): qHTS in cells in absence of CPT; note: nearly all actives have a fitted effect of over 55% in size
# Experimental parameters: DT40 Tdp1-/- hTDP1 cells, no CPT, ATP luminescence, 48 h; series mostly up to 46.2 µM
Out of some 420,000 compounds screened, about 64,000 (15%) were called active. Inconclusive results (about 27%) are left out. Calls follow the shape of the dose curve; as a rule, active = well fitted inhibition curve with a large enough effect; inconclusive = small, poorly fitted or top-dose-only effect; inactive = flat fitted curve, though single readings scatter. Only a selection was taken, and actives are over-represented in it overall.
Pick from active, inactive when you respond.

Worked examples follow.
{"Molecule": "C[C@@]12CCC3C(CC[C@@H]4CC(O)CC[C@@]34C)C1CCC2O (some centres not stated)", "Discrete label": "inactive"}
{"Molecule": "CC(=O)c1c(O)c(C)c(O)c(Cc2c(O)c3c(c(C(=O)/C=C\\c4ccccc4)c2O)OC(C)(C)C=C3)c1O", "Discrete label": "active"}
{"Molecule": "C[C@]12CCC3C(CC[C@H]4[C@H](O)[C@H](O)CC[C@]34C)C1CCC2=O (some centres not stated)", "Discrete label": "active"}
{"Molecule": "COc1ccc(-c2nn(CCC#N)cc2C(=O)Nc2ccc(C(C)=O)cc2)cc1", "Discrete label": "inactive"}

Assay outcome for C[N+]1(C)CCOC(O)(c2ccc(-c3ccc(C4(O)C[N+](C)(C)CCO4)cc3)cc2)C1 (configuration not stated) : what was it?
inactive

Hi, sorry to bother you, what did the test record for C[C@]12CCC3C(CC[C@H]4[C@H](O)[C@H](O)CC[C@]34C)C1CC[C@@H]2O (some centres not stated) ?
inactive

Per the assay record, what outcome was assigned to "Cn1cc(C(=O)OCC(=O)N2CCCC2)c2ccccc21" ?
inactive

====

# Assay text: qHTS for Inhibitors of human tyrosyl-DNA phosphodiesterase 1 (TDP1): qHTS in cells in absence of CPT; note: nearly all actives have a fitted effect of over 55% in size
# Experimental parameters: DT40 Tdp1-/- hTDP1 cells, no CPT, ATP luminescence, 48 h; series mostly up to 46.2 µM
In all, about 420,000 compounds went through this assay and about 64,000 (15%) were called active. Inconclusive results (about 27%) are left out. Calls come from the whole dose curve; as a rule, active = well fitted inhibition curve with a large enough effect; inconclusive = small, poorly fitted or top-dose-only effect; inactive = flat fitted curve, though single readings scatter. The full list was thinned out, with actives kept by preference.
API: response.call in t for active, f for inactive

Can you look up the reported call for "COc1ccccc1C(=O)N[C@@H]1c2ccccc2C2(CCN(Cc3nc(C(C)C)cs3)CC2)[C@H]1O" for me?
t

Recorded test call requested for "O=C(NC(=S)N1C[C@H]2C[C@H](C1)c1cccc(=O)n1C2)c1ccc(F)cc1"
f

====

# Assay text: qHTS for Inhibitors of human tyrosyl-DNA phosphodiesterase 1 (TDP1): qHTS in cells in absence of CPT; note: nearly all actives have a fitted effect of over 55% in size
# Experimental parameters: DT40 Tdp1-/- hTDP1 cells, no CPT, ATP luminescence, 48 h; series mostly up to 46.2 µM
Screen size: about 420,000 compounds; about 64,000 (15%) were called active. Not shown: some 27% with an inconclusive outcome. Calls follow the shape of the dose curve; as a rule, active = well fitted inhibition curve with a large enough effect; inconclusive = small, poorly fitted or top-dose-only effect; inactive = flat fitted curve, though single readings scatter. This excerpt belongs to a sample that is enriched for actives.
Allowed answers: active, inactive

Give the logged outcome of this assay for the following molecule: CC1C2Cn3c(nc4ccccc43)C1N(C)O2 (centres undefined)
inactive

Please let me know the test result on file for "c1ccc(C(CN2CCCCC2)c2ccccc2)cc1" .
inactive

Which result was noted for this molecule in the test: "O=c1[nH]c(=O)n(Cc2ccccc2)c(O)c1/C=N/Nc1c(F)c(F)c(F)c(F)c1F"
inactive

What did this assay record as the result for "CN(C)S(=O)(=O)c1cc(C(=O)N2CCC(C(=O)O)(c3ccccc3)CC2)ccc1Cl" ?
inactive

Please indicate how the test categorized "C[C@@]1([C@@H](NP(=O)(c2ccccc2)c2ccccc2)c2ccccc2)C[C@H]1CCO" .
active

How was "Cc1nc2ccc(N3CCN(C)CC3)cc2nc1C" classified in this test?
inactive

// return assay outcome for "COc1ccc(-n2c(-c3ccccc3)nc3ccccc3c2=O)cc1"
active

What call does the record list for "O=c1c2ccccc2nc(-c2ccccc2)n1-c1ccccn1" ?
inactive

Answer briefly: the call reported for "O=C1NC(=O)N(Cc2ccco2)C(=O)/C1=C\c1cccn1CCOc1ccccc1" in this assay.
inactive

Test call, this molecule: CCC1(c2ccccc2)C(=O)NC(=O)N(C)C1=O (centres undefined)
inactive

Please indicate how the test categorized C=CC12CN(C)[C@@H]3C4CO[C@H](C[C@H]41)[C@]1(C(=O)Nc4ccccc41)[C@@H]32 (some centres undefined) .
inactive

====

# Assay text: qHTS for Inhibitors of human tyrosyl-DNA phosphodiesterase 1 (TDP1): qHTS in cells in absence of CPT; note: nearly all actives have a fitted effect of over 55% in size
# Experimental parameters: DT40 Tdp1-/- hTDP1 cells, no CPT, ATP luminescence, 48 h; series mostly up to 46.2 µM
Among all 420,000 compounds or so, about 64,000 (15%) were called active. About 27% were inconclusive and are not listed. The call rests on the fitted dose curve; in most records, active means well fitted inhibition curve with a large enough effect; inconclusive means small, poorly fitted or top-dose-only effect; inactive means flat fitted curve, though single readings scatter. This excerpt belongs to a sample that is enriched for actives.
Please answer using one outcome listed in active, inactive

// known answers, use as guide
{"Compound": "Cc1cccc(OP(=O)(Oc2cccc(C)c2)OC(c2ccccc2)C(F)(F)F)c1 (stereo unspecified)", "Discrete label": "active"}
{"Compound": "CC(C)CN1CCN(Cc2ccccc2C(F)(F)F)CC1CCO (stereo unspecified)", "Discrete label": "inactive"}
{"Compound": "CCCN(C/C=C/I)C1CCc2ccc(O)cc2C1 (stereo unspecified)", "Discrete label": "active"}

Tell me the recorded outcome of this test for "CCCCC(=O)N/N=C/c1c(O)n(-c2ccccc2)c(=O)[nH]c1=O" .
inactive

Short answer needed: outcome of this test for CC(Cc1cccs1)NCc1ccc(Cl)cc1 (stereo unspecified) ?
inactive

Please share the test call associated with "O=c1[nH]c(=O)n(CCc2ccc(F)cc2)c(O)c1/C=N/N1CCCCC1" .
inactive

Lab log entry: "CC(=C1C(=O)c2ccccc2C1=O)N1CCN(CCN=Cc2c(O)n(C)c(=O)n(C)c2=O)CC1" — outcome as called in the assay?
inactive

# fetch the recorded call for "CCCCC(=O)N/N=C/c1c(O)n(CCC2=CCCCC2)c(=O)[nH]c1=O" here
active

Please share the test call associated with "NS(=O)(=O)c1ccc(CCNC(=O)c2ccc(Cl)c(S(=O)(=O)N3CCCCCC3)c2)cc1" .
active

Short answer needed: outcome of this test for CCN1C[C@]2(COC)C(O)C[C@H](OC)[C@@]34C5C[C@]6(O)C(OC)C(O)[C@](OC(C)=O)(C5C6OC(=O)c5ccccc5)C(C(OC)C23)C14 (stereo partly specified) ?
inactive

Hi team, can someone confirm the assay call for CC1CNCCN1c1ccc(Cl)cc1 (stereo unspecified) ?
inactive
